- tgt: UniProt:Q6FTL6
- Sequence (Q6FTL6 as listed by the source): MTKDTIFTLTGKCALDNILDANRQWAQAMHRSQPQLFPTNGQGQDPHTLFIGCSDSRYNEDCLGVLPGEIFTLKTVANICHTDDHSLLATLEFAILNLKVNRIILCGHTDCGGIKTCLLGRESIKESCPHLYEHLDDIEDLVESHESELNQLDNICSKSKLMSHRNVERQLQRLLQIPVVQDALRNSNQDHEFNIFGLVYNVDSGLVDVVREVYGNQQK
- assay-overview: Activation of Candida glabrata recombinant carbonic anhydrase by stopped flow CO2 hydration method
- particulars: Nakaseomyces glabratus
The following compounds are shown together with reported Ka values.
Write the answer as a number in µM, unit excluded.

// solved cases for Ka follow
>  <molecule>
NCCc1ccc(O)c(O)c1

>  <readout-unit>
µM

>  <Ka>
27.6

$$$$
>  <molecule>
NCc1ccccn1

>  <readout-unit>
µM

>  <Ka>
15

$$$$
>  <molecule>
N[C@@H](Cc1ccc(O)cc1)C(=O)O

>  <readout-unit>
µM

>  <Ka>
9.5

$$$$
>  <molecule>
N[C@@H](Cc1ccc(O)c(O)c1)C(=O)O

>  <readout-unit>
µM

>  <Ka>
23.3

$$$$
>  <molecule>
NCCc1ccccn1

>  <readout-unit>
µM

>  <Ka>
16.3

$$$$

GET /values?item= N[C@H](Cc1ccc(O)c(O)c1)C(=O)O &system= UniProt:Q6FTL6 returns Ka: 15.1

N[C@@H](Cc1c[nH]c2ccccc12)C(=O)O on UniProt:Q6FTL6 gives Ka = 22.8

Ka of N[C@H](Cc1c[nH]c2ccccc12)C(=O)O , assay on UniProt:Q6FTL6, is 12.1

The observed Ka for N[C@@H](Cc1c[nH]cn1)C(=O)O when tested with UniProt:Q6FTL6 stands at 37

UniProt:Q6FTL6 data for CNC[C@@H](O)c1ccc(O)c(O)c1 ; its Ka: 10.8

====

Listed here are compounds together with their documented Ka.
- tgt: Carbonic anhydrase (Candida glabrata CBS 138)
- assay-overview: Activation of Candida glabrata recombinant carbonic anhydrase by stopped flow CO2 hydration method
- particulars: Nakaseomyces glabratus
Report only the number, with the unit µM understood.

Completed entries (count: 4):
>  <molecule>
NCCc1c[nH]cn1

>  <readout-unit>
µM

>  <Ka>
27.4

$$$$
>  <molecule>
NCCN1CCOCC1

>  <readout-unit>
µM

>  <Ka>
10.1

$$$$
>  <molecule>
Nc1ccc(C[C@H](N)C(=O)O)cc1

>  <readout-unit>
µM

>  <Ka>
31.6

$$$$
>  <molecule>
NCCN1CCNCC1

>  <readout-unit>
µM

>  <Ka>
14.9

$$$$

# Ka (compound: NCCc1c[nH]c2ccc(O)cc12 ) is 16.7

Short answer for N[C@H](Cc1ccc(O)cc1)C(=O)O : Ka was 7.1

Reported Ka ( N[C@H](Cc1c[nH]cn1)C(=O)O ) = 21.2
